- Test summary: Clearance study, liver microsomes (rats)
- Conditions used: rat, pH 7.4
// -1 strictly below 200 µL/min/mg in microsomal CLint at 1 μM; 1 otherwise

O=C(NC1CCC(F)(F)CC1)c1ccc2c(c1)N=C(c1ccc(Cl)s1)c1ccccc1S2 [drawing 1699]; -1
CCCCNC(=O)c1ccc2c(c1)N=C(c1ccc(Br)cn1)c1ccccc1S2 [drawing 1654]; 1
CCN(CCNC(=O)c1ccc2c(c1)N=C(c1ccc(F)cc1)c1ccccc1S2)c1ccccc1 [drawing 1749]; 1
CCOC(=O)N1CCC(NC(=O)c2ccc3c(c2)N=C(c2ccc(Cl)cc2)c2ccccc2S3)CC1 [drawing 1726]; -1
O=C(NCCc1ccc(Cl)cc1)c1ccc2c(c1)N=C(c1cccc(Cl)c1)c1ccccc1S2 [drawing 1739]; -1
O=C(NCc1cccc(Cl)c1)c1ccc2c(c1)N=C(c1cccc(Cl)c1)c1ccccc1S2 [drawing 1729]; -1
O=C(NCCCC(F)(F)F)c1ccc2c(c1)N=C(c1cccc(F)c1)c1ccccc1S2 [drawing 1719]; -1
O=C(NCCc1ccc(Cl)cc1)c1ccc2c(c1)N=C(N1CCC(F)(F)CC1)c1ccccc1S2 [drawing 1802]; 1

**Q:** Would you say CCCCNC(=O)c1ccc2c(c1)N=C(c1ccc(Cl)cc1)c1cc(Cl)ccc1S2 [drawing 1688] shows microsomal CLint at 1 μM at minimum 200 µL/min/mg?
**A:** -1

---

Each entry below carries its reported Binding rat Inh %.
- Measured on: native CB1 receptors (Rattus norvegicus)
- Sequence (P20272 whole entry): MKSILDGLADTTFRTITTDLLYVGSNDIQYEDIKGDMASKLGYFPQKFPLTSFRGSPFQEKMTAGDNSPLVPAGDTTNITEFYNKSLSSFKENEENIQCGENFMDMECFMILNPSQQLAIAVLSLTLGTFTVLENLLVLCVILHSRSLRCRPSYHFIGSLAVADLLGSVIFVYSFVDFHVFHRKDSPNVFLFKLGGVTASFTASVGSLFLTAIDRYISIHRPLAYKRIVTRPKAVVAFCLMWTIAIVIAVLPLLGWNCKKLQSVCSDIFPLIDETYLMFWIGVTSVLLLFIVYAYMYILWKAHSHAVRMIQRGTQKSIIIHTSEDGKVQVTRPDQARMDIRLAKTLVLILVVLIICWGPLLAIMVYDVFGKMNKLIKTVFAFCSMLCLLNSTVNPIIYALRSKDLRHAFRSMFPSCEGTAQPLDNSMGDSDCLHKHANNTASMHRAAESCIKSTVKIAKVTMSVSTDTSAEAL
- Test summary: CB1 receptor rat binding assay ([3H]SR141716A, rat brain membranes)
- Conditions used: rat brain membranes, [3H]SR141716A
Record the value in %, omitting the unit from your answer.

Example entries and their recorded answers appear below.
Cc1cccc(C2=Nc3cc(C(=O)NCc4ccc(C)o4)ccc3Sc3ccccc32)n1 [drawing 1353]; 108
CCCNC(=O)c1ccc2c(c1)N=C(c1ccc(Cl)cc1F)c1ccccc1S2 [drawing 1276]; 98
O=C(NCCc1cccnc1)c1ccc2c(c1)N=C(c1ccc(F)cc1)c1ccccc1S2 [drawing 1203]; 96
O=C(NN1CCCCC1)c1ccc2c(c1)N=C(c1ccc(Cl)cc1)c1ccccc1S2 [drawing 1424]; 60
O=C(NCc1cccnc1)c1ccc2c(c1)N=C(c1ccc(Cl)c(Cl)c1)c1ccccc1S2 [drawing 1401]; 102

**Q:** Give Binding rat Inh % for CCCCNC(=O)c1ccc2c(c1)N=C(c1ccc(Cl)cn1)c1ccc(F)cc1S2 [drawing 1317]
**A:** 86

**Q:** Give Binding rat Inh % for Cc1ccsc1C1=Nc2cc(C(=O)NN3CCCCCC3)ccc2Sc2ccccc21 [drawing 1507]
**A:** 76

**Q:** Give Binding rat Inh % for CCOCCNC(=O)c1ccc2c(c1)N=C(c1ccc(C#N)cc1)c1ccccc1S2 [drawing 1543]
**A:** 64

**Q:** Give Binding rat Inh % for O=C(NN1CCCCCC1)c1ccc2c(c1)N=C(c1cccc(F)c1)c1ccccc1S2 [drawing 1215]
**A:** 97

**Q:** Give Binding rat Inh % for COc1ccc(C2=Nc3cc(C(=O)NN4[C@H](C)CCC[C@@H]4C)ccc3Sc3ccccc32)cc1 [drawing 1432]
**A:** 88

**Q:** Give Binding rat Inh % for O=C(NC1CCCC1)c1ccc2c(c1)N=C(c1ccc(Cl)cc1)c1ccccc1S2 [drawing 1436]
**A:** 89

**Q:** Give Binding rat Inh % for O=C(NCCc1ccccn1)c1ccc2c(c1)N=C(c1ccc(Cl)cc1F)c1ccccc1S2 [drawing 1398]
**A:** 74

**Q:** Give Binding rat Inh % for O=C(NCc1cccs1)c1ccc2c(c1)N=C(c1ccc(Cl)s1)c1ccccc1S2 [drawing 1256]
**A:** 98

**Q:** Give Binding rat Inh % for O=C(NN1CCCCCC1)c1ccc2c(c1)N=C(c1ccc(Cl)cc1Cl)c1ccccc1S2 [drawing 1522]
**A:** 72

**Q:** Give Binding rat Inh % for CC(C)CCNC(=O)c1ccc2c(c1)N=C(c1ccccn1)c1ccccc1S2 [drawing 1349]
**A:** 86

**Q:** Give Binding rat Inh % for CCCCNC(=O)c1ccc2c(c1)N=C(c1ccc(Cl)s1)c1ccc(F)cc1S2 [drawing 1267]
**A:** 93

---

- Test summary: Clearance study, liver microsomes (mice)
- Conditions used: mouse, pH 7.4
Parameter: log10(microsomal CLint at 1 μM) (log10 of the value in µL/min/mg)
Use the decimal logarithm of microsomal CLint at 1 μM (µL/min/mg).

O=C(NCc1cccnc1)c1ccc2c(c1)N=C(c1cccc(F)c1)c1ccccc1S2 [drawing 1742]; 2.10

**Q:** Give log10(microsomal CLint at 1 μM) for CCCCNC(=O)c1cc2c(cc1O)Sc1ccccc1C(c1ccc(Cl)cc1)=N2 [drawing 1672]
**A:** 1.08

**Q:** Give log10(microsomal CLint at 1 μM) for CCCCNC(=O)c1ccc2c(c1)N=C(c1ccc(Br)cn1)c1ccccc1S2 [drawing 1654]
**A:** 2.54

**Q:** Give log10(microsomal CLint at 1 μM) for O=C(NCc1ccco1)c1ccc2c(c1)N=C(c1ccc(Cl)c(Cl)c1)c1ccccc1S2 [drawing 1666]
**A:** 1.43

**Q:** Give log10(microsomal CLint at 1 μM) for O=C(NCc1ccc(F)cc1)c1ccc2c(c1)N=C(C1CCCCC1)c1ccccc1S2 [drawing 1775]
**A:** 2.44

**Q:** Give log10(microsomal CLint at 1 μM) for CCCNC(=O)c1ccc2c(c1)N=C(c1ccc(Cl)cc1)c1ccccc1S2 [drawing 1691]
**A:** 2.84

---

Each entry below carries its reported pIC50.
- Measured on: CB1 (mutant) (Homo sapiens)
- Test summary: R-SAT functional receptor assay, CB1 (mutant, truncated after amino acid 417)
- Type: cell-based
- Conditions used: pIC50, Appendix A; R-SAT CB1; receptor form (mutant or wild-type) not stated
In plain terms, pIC50 is the concentration in mol/L turned into minus its base-10 logarithm.

Example entries and their recorded answers appear below.
CC(C)CCNC(=O)c1ccc2c(c1)N=C(c1cccc(F)c1)c1ccccc1S2 [drawing 671]; 8.20
CC(C)CCNC(=O)c1ccc2c(c1)N=C(c1ccc(F)cc1)c1ccccc1S2 [drawing 771]; 8.00
O=C(NC1CCCCC1)c1ccc2c(c1)N=C(c1ccccn1)c1ccccc1S2 [drawing 598]; 7.30

**Q:** Give pIC50 for O=C(NCc1ccc(F)cc1)c1ccc2c(c1)N=C(c1cccc(Cl)c1)c1ccccc1S2 [drawing 715]
**A:** 8.10

**Q:** Give pIC50 for CCCCNC(=O)c1ccc2c(c1)N=C(c1sccc1C)c1ccccc1S2 [drawing 881]
**A:** 7.80

**Q:** Give pIC50 for O=C(NCc1cccc(Cl)c1)c1ccc2c(c1)N=C(N1CCCCC1)c1ccccc1S2(=O)=O [drawing 939]
**A:** 7.70

**Q:** Give pIC50 for O=C(NN1CCCCCC1)c1ccc2c(c1)N=C(c1cccc(F)c1)c1ccccc1S2 [drawing 697]
**A:** 8.10

**Q:** Give pIC50 for C[C@@H]1CCC[C@H](C)N1NC(=O)c1ccc2c(c1)N=C(c1ccc(Cl)c(Cl)c1)c1ccccc1S2 [drawing 739]
**A:** 8.10

**Q:** Give pIC50 for O=C(c1ccc2c(c1)N=C(c1ccc(Cl)cc1)c1ccccc1S2)N1CCCCC1
**A:** 7.50

---

Each entry below carries its reported Emax.
- Measured on: CB1 (mutant) (Homo sapiens, UniProt P21554)
- Sequence (P21554 1-417, change not shown): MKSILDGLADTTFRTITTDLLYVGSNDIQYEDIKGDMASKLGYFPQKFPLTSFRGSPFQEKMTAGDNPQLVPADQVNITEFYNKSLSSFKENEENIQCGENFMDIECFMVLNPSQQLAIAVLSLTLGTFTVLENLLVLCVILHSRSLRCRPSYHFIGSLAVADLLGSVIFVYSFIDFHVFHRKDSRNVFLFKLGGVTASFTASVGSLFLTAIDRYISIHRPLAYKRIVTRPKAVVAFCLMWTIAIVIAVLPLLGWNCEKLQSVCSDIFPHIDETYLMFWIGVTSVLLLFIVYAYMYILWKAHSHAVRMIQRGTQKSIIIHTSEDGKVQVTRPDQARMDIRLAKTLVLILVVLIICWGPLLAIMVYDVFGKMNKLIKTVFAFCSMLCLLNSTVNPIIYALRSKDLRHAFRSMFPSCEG
- Test summary: R-SAT functional receptor assay, CB1 (mutant, truncated after amino acid 417)
- Type: cell-based
- Conditions used: Appendix A; R-SAT CB1; receptor form not stated; relative to SR141716 (100%); read-out: % Inhibition
Record the value in %, omitting the unit from your answer.

CCCCNC(=O)c1ccc2c(c1)N=C(c1ccc(F)cn1)c1ccccc1S2 [drawing 709]; 101

**Q:** Give Emax for Cc1cccnc1C1=Nc2cc(C(=O)NCC(C)C)ccc2Sc2ccccc21
**A:** 87

**Q:** Give Emax for O=C(NCCCc1ccccc1)c1ccc2c(c1)N=C(c1ccccc1F)c1ccccc1S2 [drawing 935]
**A:** 106

**Q:** Give Emax for CC(C)CNC(=O)c1ccc2c(c1)N=C(c1ccc(Cl)s1)c1ccc(Cl)cc1S2 [drawing 983]
**A:** 110

**Q:** Give Emax for CCONC(=O)c1ccc2c(c1)N=C(c1ncccc1C)c1ccccc1S2
**A:** 21

**Q:** Give Emax for CC(C)CCNC(=O)c1ccc2c(c1)N=C(c1cccc(Cl)c1)c1ccccc1S2 [drawing 567]
**A:** 115

**Q:** Give Emax for O=C(NNC(=O)c1ccc2c(c1)N=C(c1ccc(F)cc1)c1ccccc1S2)c1ccccc1 [drawing 764]
**A:** 83

**Q:** Give Emax for O=C(NCc1ccncc1)c1ccc2c(c1)N=C(c1ccc(F)cc1)c1ccccc1S2 [drawing 716]
**A:** 101

**Q:** Give Emax for O=C(NCc1ccc(F)cc1)c1ccc2c(c1)N=C(c1cccc(Cl)c1)c1ccccc1S2 [drawing 715]
**A:** 97

**Q:** Give Emax for O=C(NCCc1cccnc1)c1ccc2c(c1)N=C(c1ccccc1Cl)c1ccccc1S2
**A:** 76

**Q:** Give Emax for CC(C)CNC(=O)c1ccc2c(c1)N=C(c1ccc(Cl)cc1)c1ccccc1S2 [drawing 741]
**A:** 123

**Q:** Give Emax for COc1ccc(C2=Nc3cc(C(=O)NC4CCCCNC4=O)ccc3Sc3ccccc32)cc1 (stereo not shown)
**A:** 62

**Q:** Give Emax for CCONC(=O)c1ccc2c(c1)N=C(c1cccc(Cl)c1)c1ccccc1S2
**A:** 90

**Q:** Give Emax for CCCCNC(=O)c1ccc2c(c1)N=C(c1ccccn1)c1ccccc1S2 [drawing 907]
**A:** 100

**Q:** Give Emax for O=C(NN1CCOCC1)c1ccc2c(c1)N=C(c1ccc(Cl)cc1)c1ccccc1S2
**A:** 75

**Q:** Give Emax for O=C(NCc1ccccc1Cl)c1ccc2c(c1)N=C(c1ccc(Cl)cc1)c1ccccc1S2 [drawing 1089]
**A:** 95

**Q:** Give Emax for CCCCCC1=Nc2cc(C(=O)NC3CCN(C(=O)OCC)CC3)ccc2Sc2ccccc21
**A:** 87

**Q:** Give Emax for CON(C)C(=O)c1ccc2c(c1)N=C(c1ccc(Cl)cc1F)c1ccccc1S2
**A:** 46

**Q:** Give Emax for CCCC1=Nc2cc(C(=O)NCC3CCCN3CC)ccc2Sc2ccccc21 (stereo not shown)
**A:** 133
